Tested on: TNF-rich medium-induced superoxide production in neutrophils
Experimental Protocol: TNF-rich medium (RM)-induced chemiluminescence in neutrophils
Format: cell-based, human
Residues, ends and D or L forms follow the SMILES beside them.

Compound	IC50
C[C@@H](O)[C@H](NC(=O)[C@@H](NC(=O)CN)[C@@H](C)O)C(=O)O [TNFRI209–211] (H-Gly-Thr-Thr-OH)	146 µM

----------
Target Of Assay: TNF-induced neutrophil CL production (Homo sapiens)
Sequence (P01375 whole entry): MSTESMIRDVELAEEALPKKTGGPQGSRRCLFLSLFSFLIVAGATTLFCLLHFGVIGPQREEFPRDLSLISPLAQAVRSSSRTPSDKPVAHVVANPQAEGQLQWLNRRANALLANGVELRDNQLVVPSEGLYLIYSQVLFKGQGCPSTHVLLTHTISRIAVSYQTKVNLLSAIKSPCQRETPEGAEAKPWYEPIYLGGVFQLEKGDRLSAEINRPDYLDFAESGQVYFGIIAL
Sequence (P19438 30-455 partner): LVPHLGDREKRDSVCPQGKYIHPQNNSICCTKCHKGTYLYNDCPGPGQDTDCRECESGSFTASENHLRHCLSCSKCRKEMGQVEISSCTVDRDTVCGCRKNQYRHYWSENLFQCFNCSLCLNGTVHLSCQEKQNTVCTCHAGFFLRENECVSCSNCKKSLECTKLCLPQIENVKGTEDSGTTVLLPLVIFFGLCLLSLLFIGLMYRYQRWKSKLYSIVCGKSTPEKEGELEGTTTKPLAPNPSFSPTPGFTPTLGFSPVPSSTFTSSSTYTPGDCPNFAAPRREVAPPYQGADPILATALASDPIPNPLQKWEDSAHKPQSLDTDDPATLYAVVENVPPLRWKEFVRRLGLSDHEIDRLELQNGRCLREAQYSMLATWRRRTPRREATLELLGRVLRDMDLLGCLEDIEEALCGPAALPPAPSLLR
Condition Details: read-out: IC50, inhibition of TNF-induced CL production; TNF (1 ng/ml) pre-treated with peptide for 30 min, human neutrophils, lucigenin chemiluminescence
pIC50: −log10 of the molar value. Residues, ends and D or L forms follow the SMILES beside them.

Compound	pIC50
C[C@@H](O)[C@H](NC(=O)[C@@H](NC(=O)CN)[C@@H](C)O)C(=O)O [TNFRI209–211] (H-Gly-Thr-Thr-OH)	3.91
